- System: Escherichia coli
- method: Bactericidal activity against Escherichia coli ATCC 25922 assessed as log reduction in bacterial colonies preincubated for 10 mins followed by bacterial plating on Luria-Bertani plates and measured after 18 to 24 hrs relative to control
- Format: functional
# key: entry, value: log(activity)
reported_property: log(activity)

1) CC1(C)NC(=O)N(CCO)C1=O :: 0
2) CC1(C)NC(=O)N(CCC[N+](C)(C)CC(=O)[O-])C1=O :: 0
3) CC1(C)C(=O)N(CCC[N+](C)(C)CCCS(=O)(=O)[O-])C(=O)N1Cl :: 1
4) CC1(C)NC(=O)N(CCC[N+](C)(C)CCCS(=O)(=O)[O-])C1=O :: 0
5) CC1(C)C(=O)N(CCC[N+](C)(C)CC(=O)[O-])C(=O)N1Cl :: 6.63
6) CC1(C)NC(=O)N(CCC[N+](C)(C)C)C1=O.[Cl-] :: 0
7) CC1(C)C(=O)N(CCC[N+](C)(C)C)C(=O)N1Cl.[Cl-] :: 2.18
8) CC1(C)C(=O)N(CCO)C(=O)N1Cl :: 6.63

----------
- Tested on: Escherichia coli
- method: Bactericidal activity against Escherichia coli ATCC 25922 assessed as reduction in bacterial colonies preincubated for 10 mins followed by bacterial plating on Luria-Bertani plates and measured after 18 to 24 hrs relative to control
- Format: functional
- Set-up: concentration or dose not given beside the values
reported_property: Activity (%)

1) CC1(C)NC(=O)N(CCC[N+](C)(C)CC(=O)[O-])C1=O :: 0
2) CC1(C)NC(=O)N(CCC[N+](C)(C)CCCS(=O)(=O)[O-])C1=O :: 0
3) CC1(C)C(=O)N(CCC[N+](C)(C)CCCS(=O)(=O)[O-])C(=O)N1Cl :: 89.9
4) CC1(C)NC(=O)N(CCO)C1=O :: 0
5) CC1(C)C(=O)N(CCC[N+](C)(C)CC(=O)[O-])C(=O)N1Cl :: 100
6) CC1(C)C(=O)N(CCC[N+](C)(C)C)C(=O)N1Cl.[Cl-] :: 99.3
7) CC1(C)C(=O)N(CCO)C(=O)N1Cl :: 100
8) CC1(C)NC(=O)N(CCC[N+](C)(C)C)C1=O.[Cl-] :: 0

----------
# key: entry, value: Activity
- Tested on: Escherichia coli
- method: Bactericidal activity against Escherichia coli ATCC 25922 assessed as reduction in bacterial colonies preincubated for 5 mins followed by bacterial plating on Luria-Bertani plates and measured after 18 to 24 hrs relative to control
- Assay type: functional
- Design: concentration or dose not given beside the values
reported_property: Activity (%)

1. CC1(C)C(=O)N(CCC[N+](C)(C)C)C(=O)N1Cl.[Cl-] :: 42.2
2. CC1(C)NC(=O)N(CCO)C1=O :: 0
3. CC1(C)C(=O)N(CCC[N+](C)(C)CCCS(=O)(=O)[O-])C(=O)N1Cl :: 25.1
4. CC1(C)C(=O)N(CCO)C(=O)N1Cl :: 100
5. CC1(C)NC(=O)N(CCC[N+](C)(C)CC(=O)[O-])C1=O :: 0
6. CC1(C)NC(=O)N(CCC[N+](C)(C)CCCS(=O)(=O)[O-])C1=O :: 0
7. CC1(C)NC(=O)N(CCC[N+](C)(C)C)C1=O.[Cl-] :: 0
8. CC1(C)C(=O)N(CCC[N+](C)(C)CC(=O)[O-])C(=O)N1Cl :: 86.7
